# System: Plasmodium falciparum
# PROCEDURE SUMMARY: Calibr Malaria Delayed Death Assay SOP
# Assay type: functional, organism-based
# Design: scale not given: in the data most compounds retested in dose-response had high values
# PROTOCOL CONDITIONS: concentration 4.99e-06 (unit not given; other assays of the set use mol/L)
The campaign covered roughly 38,000 compounds. About 1,200 (3.2%) showed an effect of 50% or more. The median lay at about -58%. The full list was thinned out, with strong results kept by preference.
PARAMETER: Percent Effect (%)
One number for each entry, in %.

Some entries whose results are on file:
COc1ccc(CCN2CCCC(CN(C)Cc3ccc(C)o3)C2)cc1 (stereo unspecified) :: -48.89
FC(F)(F)CCc1ccnc(N[C@H]2CC[C@H](n3cnnc3)CC2)n1 :: -55.01
O=C(NCCn1cccc1)c1c(O)cc(F)cc1F :: -181.2
CCn1nc(CC(C)C)cc1C(=O)NCCCN1CCOCC1 :: -66.39

Answer for every listed entry: what is its Percent Effect? The entries follow.
1. CCCn1c(C)c(CC(=O)NCC(N)=O)c2c1CC(C)(C)CC2=O
2. Cc1cc(C[C@@H]2CCC[C@H]2NCc2c[nH]nc2-c2ccccc2)on1.O=C(O)CC(O)(CC(=O)O)C(=O)O
3. CC(C)[C@H](N)c1nnc(SCC(=O)Nc2ccc(Br)cc2)o1.Cl
4. N[C@@H]1CC[C@@H](Nc2nccc(CCC(F)(F)F)n2)C1

Response:
1. -28.28
2. 55.35
3. -137.1
4. -7.999
